biological target: Transient receptor potential cation channel subfamily A member 1 (Homo sapiens, UniProt O75762); test: Antagonist activity at human TRPA1 by calcium flux based FLIPR assay
Sequence (O75762 whole entry): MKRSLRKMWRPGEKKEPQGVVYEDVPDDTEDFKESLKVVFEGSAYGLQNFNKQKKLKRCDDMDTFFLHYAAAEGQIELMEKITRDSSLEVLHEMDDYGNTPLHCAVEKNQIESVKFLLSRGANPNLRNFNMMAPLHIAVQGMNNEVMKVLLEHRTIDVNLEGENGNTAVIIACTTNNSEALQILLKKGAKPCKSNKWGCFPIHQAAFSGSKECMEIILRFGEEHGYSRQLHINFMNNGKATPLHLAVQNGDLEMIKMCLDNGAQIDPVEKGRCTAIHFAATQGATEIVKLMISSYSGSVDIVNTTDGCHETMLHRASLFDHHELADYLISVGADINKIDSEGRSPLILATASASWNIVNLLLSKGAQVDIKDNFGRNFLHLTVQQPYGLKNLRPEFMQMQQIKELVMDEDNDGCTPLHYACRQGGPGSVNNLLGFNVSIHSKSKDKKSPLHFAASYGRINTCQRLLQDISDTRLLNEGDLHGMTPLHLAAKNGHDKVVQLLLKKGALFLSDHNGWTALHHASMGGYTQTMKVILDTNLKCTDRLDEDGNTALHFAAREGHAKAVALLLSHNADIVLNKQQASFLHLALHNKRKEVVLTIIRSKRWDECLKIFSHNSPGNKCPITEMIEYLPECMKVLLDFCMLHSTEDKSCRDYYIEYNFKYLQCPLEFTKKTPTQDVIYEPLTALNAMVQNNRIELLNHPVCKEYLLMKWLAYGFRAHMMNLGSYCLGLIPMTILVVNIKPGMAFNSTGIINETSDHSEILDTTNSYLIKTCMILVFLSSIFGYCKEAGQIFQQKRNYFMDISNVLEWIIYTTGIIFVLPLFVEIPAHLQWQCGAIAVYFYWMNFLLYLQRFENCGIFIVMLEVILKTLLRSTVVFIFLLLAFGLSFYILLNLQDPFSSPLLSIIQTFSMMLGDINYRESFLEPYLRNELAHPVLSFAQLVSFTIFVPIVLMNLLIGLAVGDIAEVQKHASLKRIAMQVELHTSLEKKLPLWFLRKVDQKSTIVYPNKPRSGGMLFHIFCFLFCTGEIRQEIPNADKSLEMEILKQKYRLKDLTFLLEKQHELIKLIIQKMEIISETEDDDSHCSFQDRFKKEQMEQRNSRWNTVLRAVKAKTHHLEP
This listing pairs compounds with measured IC50.
Report only the number, with the unit µM understood.

1) FC(F)(F)c1ccc2c(Nc3ccc(Cl)nc3)n[nH]c2c1 | 2.5

# lookup: IC50 of Fc1ccc(Nc2n[nH]c3cc(OC(F)(F)F)cnc23)cc1F 0.33

* * *

test: Intrinsic clearance in human liver microsomes; assay type: ADME, microsome; details: read-out: CLH
Reported property: microsomal CLint

1) N#Cc1ccc(-c2n[nH]c3cc(OC(F)(F)F)ccc23)cc1 | < 8 µL/min/mg

Name the reported microsomal CLint value associated with the compound Fc1ccc(Nc2n[nH]c3cc(OC(F)(F)F)cnc23)cc1F 73 µL/min/mg

Value source: ChEMBL document CHEMBL4033760
